The following compounds are listed with their measured fraction unbound at 4 h, 2 µM values.
- assay details: Plasma protein binding in CD-1 mouse plasma incubated for 4 hrs and assessed as unbound fraction at 2 uM measured by LC/MS/MS analysis
- Format: ADME, cell-free
Could you keep your reply to the number by itself?

Known results for compounds:
CNC1=NC(=O)[C@H]([C@H](C)c2c[nH]c3cccc(Cl)c23)O1; 0.134
CNC1=NC(=O)[C@H]([C@H](C)c2c[nH]c3cccc(F)c23)O1; 0.2
CC(=O)CC(c1ccccc1)c1c(O)c2ccccc2oc1=O (stereo not given); 0.098
CNC1=NC(=O)[C@H]([C@H](C)c2c[nH]c3cccc(C)c23)O1; 0.276

Now consider the entry below.
Enquiry: Report fraction unbound at 4 h, 2 µM for CNC1=NC(=O)[C@H]([C@H](C)c2c[nH]c3ccccc23)O1 please.
Return: 0.441
